Below, each entry is listed with its recorded pKi.
Molecular target: Human immunodeficiency virus type 1 protease (Human immunodeficiency virus 1)
Assay: Apparent inhibitory constant against HIV-1 protease was determined
Details: read-out: Ki app
In plain terms, pKi is the concentration in mol/L turned into minus its base-10 logarithm.

As a guide, the following entries are already answered.
| compound | readout.name | measured.number |
| --- | --- | --- |
| N#C/C(=C(/O)[C@H](Cc1ccccc1)NC(=O)OCC1c2ccccc2-c2ccccc21)c1ccc([N+](=O)[O-])cc1 | pKi | 4.11 |
| CC(C)(C)OC(=O)N[C@H](C(=O)/C(C#N)=C(\O)c1ccccc1)C(=O)C(N)Cc1ccccc1 (some centres not stated) | pKi | 3.49 |
| CC(C)(C)OC(=O)N[C@@H](C(=O)C1CCCN1)/C(O)=C(\C#N)c1ccc([N+](=O)[O-])cc1 (some centres not stated) | pKi | 3.74 |
| CC(C)(C)OC(=O)N[C@@H](C(=O)C(N)CC1CCCCC1)/C(O)=C(\C#N)c1ccc([N+](=O)[O-])cc1 (some centres not stated) | pKi | 4.82 |
| CC(C)(C)OC(=O)N[C@@H](C(=O)[C@@H](N)Cc1ccccc1)/C(O)=C(\C#N)c1ccc([N+](=O)[O-])cc1 | pKi | 4.27 |

So, CC(=O)NC(CC(C)C)C(=O)N[C@@H](Cc1ccccc1)/C(O)=C(\C#N)c1ccc([N+](=O)[O-])cc1 (some centres not stated) ? Its pKi was 5.05

Form field pKi, entry CC(C)(C)OC(=O)N[C@@H](C(=O)C(N)Cc1c[nH]c2ccccc12)/C(O)=C(\C#N)c1ccc([N+](=O)[O-])cc1 (some centres not stated) : 4.74
